Origin of the recorded values: ChEMBL document CHEMBL4414605

Listed here: compounds with reported Kdiss for D(2) dopamine receptor (Homo sapiens).
Measurement name: Kdiss (s⁻¹)

compound=O=C(CCCN1CCC(O)(c2ccc(Cl)cc2)CC1)c1ccccc1 measurement_name=Kdiss measured_number=0.0187
compound=O=C(CCCN1CCC(O)(c2ccccc2)CC1)c1ccc(F)cc1 measurement_name=Kdiss measured_number=0.017
compound="OC1(c2ccc(Cl)cc2)CCN(CC[C@H]2C[C@H]2c2ccc(F)cc2)CC1 (racemic)" measurement_name=Kdiss measured_number=0.0228
compound=O=C(CCCN1CCC(O)(c2ccc(Cl)cc2)CC1)c1c(F)cccc1F measurement_name=Kdiss measured_number=0.0182
compound=Cc1ccccc1C(=O)CCCN1CCC(O)(c2ccc(Cl)cc2)CC1 measurement_name=Kdiss measured_number=0.0138
compound=O=C(CCCN1CC=C(c2ccc(Cl)cc2)CC1)c1ccc(F)cc1 measurement_name=Kdiss measured_number=0.0108
compound=O=C(CCCN1CCC(O)(c2ccccc2)CC1)c1ccccc1 measurement_name=Kdiss measured_number=0.0118
compound=O=C(CCCN1CCC(O)(c2ccc(F)cc2)CC1)c1ccc(F)cc1 measurement_name=Kdiss measured_number=0.013
compound=OC1(c2ccc(Cl)cc2)CCN(CC/C=C/c2ccc(F)cc2)CC1 measurement_name=Kdiss measured_number=0.0127
compound=O=C(CCCN1CCC(O)(c2ccc(Cl)c(Cl)c2)CC1)c1ccc(F)cc1 measurement_name=Kdiss measured_number=0.007
compound=OC1(c2ccc(Cl)cc2)CCN(CCCCc2ccc(F)cc2)CC1 measurement_name=Kdiss measured_number=0.0185
compound=O=C(CCCN1CCC(O)(c2c(Cl)cccc2Cl)CC1)c1ccc(F)cc1 measurement_name=Kdiss measured_number=0.0175
compound=O=C(CCCN1CCN(c2ccc(Cl)cc2)CC1)c1ccc(F)cc1 measurement_name=Kdiss measured_number=0.0133
compound=O=C(CCCN1CCC(O)(c2ccc(Cl)cc2)CC1)c1ccccc1F measurement_name=Kdiss measured_number=0.0173

###

Listed here: compounds with reported Kdiss for D(2) dopamine receptor (Homo sapiens, UniProt P14416).
Measurement name: Kdiss

smiles_input=O=C(CCCN1CCC(O)(c2ccc(Cl)cc2)CC1)c1cccc(F)c1F measurement_name=Kdiss result="1.29 to 1.7 min⁻¹"
smiles_input=OC1(c2ccc(Cl)cc2)CCN(CCCc2ccc(F)cc2)CC1 measurement_name=Kdiss result="1.33 to 1.54 min⁻¹"
smiles_input=O=C(CCCN1CCC(O)(c2ccc(Cl)cc2)CC1)c1cc(F)ccc1F measurement_name=Kdiss result="1.14 to 1.49 min⁻¹"

###

A collection of molecules and their measured Ka
# Target entity: D(2) dopamine receptor (Homo sapiens, UniProt P14416)
# Sequence (P14416 whole entry): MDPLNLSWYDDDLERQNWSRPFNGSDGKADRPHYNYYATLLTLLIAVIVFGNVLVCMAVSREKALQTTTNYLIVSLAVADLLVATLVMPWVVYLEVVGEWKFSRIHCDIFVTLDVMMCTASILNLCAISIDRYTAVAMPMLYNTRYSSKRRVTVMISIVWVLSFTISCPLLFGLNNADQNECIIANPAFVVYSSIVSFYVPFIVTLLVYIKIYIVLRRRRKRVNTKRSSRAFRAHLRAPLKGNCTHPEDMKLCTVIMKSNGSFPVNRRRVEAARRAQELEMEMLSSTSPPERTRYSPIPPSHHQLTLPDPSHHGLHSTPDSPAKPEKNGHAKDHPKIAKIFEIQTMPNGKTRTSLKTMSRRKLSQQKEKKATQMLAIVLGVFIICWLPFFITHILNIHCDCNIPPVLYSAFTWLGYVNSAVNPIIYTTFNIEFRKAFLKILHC
Measurement name: Ka

smiles_input=O=C(CCCN1CCC(O)(c2ccc(C(F)(F)F)cc2)CC1)c1ccc(F)cc1 measurement_name=Ka result="1.36 ×10⁹ /M/min"
smiles_input=OC1(c2ccc(Cl)cc2)CCN(CCCCc2ccc(F)cc2)CC1 measurement_name=Ka result="1.57 ×10⁸ /M/min"
smiles_input=O=C(CCCN1CCC(O)(c2ccc(Cl)cc2)CC1)c1cc(F)cc(F)c1 measurement_name=Ka result="4.25 ×10⁶ /M/min"

###

A collection of compounds and their measured Ka
# Target entity: UniProt:P14416
Measurement name: Ka

compound="OC(CCCN1CCC(O)(c2ccc(Cl)cc2)CC1)c1ccc(F)cc1 (centres undefined)" target_entity=UniProt:P14416 result="6.19 ×10⁶ /M/min"
compound="O=C(CCCN1CCC2(c3ccc(Cl)cc3)CC2C1)c1ccc(F)cc1 (centres undefined)" target_entity=UniProt:P14416 result="2.03 ×10⁹ /M/min"
compound=OC1(c2ccc(Cl)cc2)CCN(CCCC#Cc2ccc(F)cc2)CC1 target_entity=UniProt:P14416 result="6.41 ×10⁷ /M/min"
compound=OC1(c2ccc(Cl)cc2)CCN(CCCc2ccc(F)cc2)CC1 target_entity=UniProt:P14416 result="2.29 to 2.45 ×10⁷ /M/min"
